Method description: Pharmacokinetics study of mice
Format: in vivo
Stated conditions: mouse, plasma; male CD-1 mice, 2.5 mpk oral administration vs 0.5 mpk intravenous injection
From the text: The purpose of this experiment was to study the pharmacokinetics of the test compound in the plasma of male CD-1 mice after intravenous injection and oral administration. The animals were randomly divided into two groups with 2 males in each group. The compounds were formulated into prescribed preparations. […]
Recorded metric: bioavailability

CCN1CCN(Cc2cc(F)c(NC(=O)Cc3ccc(-c4cnc5cc(OC)c(OC)cc5c4)nc3)cc2C(F)(F)F)CC1 [Compound 1] | 48.9%
